Every entry's value here was drawn from patent US20120142623A1.

testedSystem: CMV protease (Human cytomegalovirus, UniProt P16753)
Sequence (P16753 1-256): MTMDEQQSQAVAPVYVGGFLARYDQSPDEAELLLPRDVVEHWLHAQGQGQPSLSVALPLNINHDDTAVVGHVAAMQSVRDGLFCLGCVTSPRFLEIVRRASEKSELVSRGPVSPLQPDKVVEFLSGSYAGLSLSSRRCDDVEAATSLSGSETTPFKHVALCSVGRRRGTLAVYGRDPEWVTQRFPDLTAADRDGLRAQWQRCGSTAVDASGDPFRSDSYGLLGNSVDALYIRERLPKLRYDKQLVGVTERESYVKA
experimentalReadout: Kd (µM)
Quick note: give the figure in µM, leave out the unit.

Record C[n+]1ccc(-c2c3nc(c(-c4cc[n+](C)cc4)c4ccc([nH]4)c(-c4cc[n+](C)cc4)c4nc(c(-c5cc[n+](C)cc5)c5ccc2[nH]5)C=C4)C=C3)cc1 [TMPyP4] ; system CMV protease (Human cytomegalovirus, UniProt P16753); Kd = 36

====

Tested on: chloroquine-sensitive strain 3D7 of P. falciparum
protocolDetails: P. falciparum growth inhibition in culture, strain 3D7
Format: cell-based, Plasmodium falciparum
conditionDetails: summary of Table 5
experimentalReadout: result of the 16 tested inhibitors in words (binding)

Example cases with answers are listed next.
{"compound": "C[C@]12C=CC(=O)C=C1CC[C@@H]1C2=CC[C@]2(C)[C@@H](C(=O)CN3CCN(c4cc(N5CCCC5)nc(N5CCCC5)n4)CC3)CC[C@@H]12.O=C(O)/C=C\\C(=O)O [U-74389G]", "testedSystem": "chloroquine-sensitive strain 3D7 of P. falciparum", "result": "very strong binding"}
{"compound": "Cc1ccc(NC(=O)c2ccc(CN3CCN(C)CC3)cc2)cc1Nc1nccc(-c2cccnc2)n1", "testedSystem": "chloroquine-sensitive strain 3D7 of P. falciparum", "result": "moderate binding"}
{"compound": "C[n+]1ccc(-c2c3nc(c(-c4cc[n+](C)cc4)c4ccc([nH]4)c(-c4cc[n+](C)cc4)c4nc(c(-c5cc[n+](C)cc5)c5ccc2[nH]5)C=C4)C=C3)cc1", "testedSystem": "chloroquine-sensitive strain 3D7 of P. falciparum", "result": "moderate binding"}
{"compound": "CN([C@@H](Cc1ccc(OS(=O)(=O)c2cccc3cnccc23)cc1)C(=O)N1CCN(c2ccccc2)CC1)S(=O)(=O)c1cccc2cnccc12", "testedSystem": "chloroquine-sensitive strain 3D7 of P. falciparum", "result": "very strong binding"}

Now consider a different compound.
Lookup result for COc1cccc2c1C(=O)c1c(O)c3c(c(O)c1C2=O)C[C@@](O)(C(C)=O)C[C@@H]3O[C@H]1C[C@H](N)[C@H](O)[C@H](C)O1 ; measured result of the 16 tested inhibitors in words (binding): very strong binding

====

testedSystem: UniProtKB P89449
Sequence (P89449 1-247): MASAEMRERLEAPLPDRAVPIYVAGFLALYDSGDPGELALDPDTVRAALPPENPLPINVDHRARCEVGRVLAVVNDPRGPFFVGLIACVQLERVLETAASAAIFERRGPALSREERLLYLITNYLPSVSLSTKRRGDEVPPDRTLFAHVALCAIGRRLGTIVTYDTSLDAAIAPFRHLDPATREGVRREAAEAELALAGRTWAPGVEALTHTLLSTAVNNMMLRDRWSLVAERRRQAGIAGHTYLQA
experimentalReadout: pKd
Lab note — pKd values are minus log10 of concentrations in M.

UniProtKB P89449 data for C[n+]1ccc(-c2c3nc(c(-c4cc[n+](C)cc4)c4ccc([nH]4)c(-c4cc[n+](C)cc4)c4nc(c(-c5cc[n+](C)cc5)c5ccc2[nH]5)C=C4)C=C3)cc1 ; its pKd: 4.40

====

Entries and their measured EC50 follow.
Tested on: chloroquine-resistant strain K1 of P. falciparum
protocolDetails: P. falciparum growth inhibition in culture, strain K1
Assay type: cell-based, Plasmodium falciparum
conditionDetails: Plasmodium falciparum, K1; Table 3 section A; mean of at least two measurements; read-out: ED50 in K1

// known answers, use as guide
{"molecule": "C=CC1=C(C)c2cc3[nH]c(cc4nc(cc5[nH]c(cc1n2)c(C)c5CCC(=O)O)C(CCC(=O)O)=C4C)c(C)c3C=C", "EC50": "10 to 40 µM"}
{"molecule": "C[n+]1ccc(-c2c3nc(c(-c4cc[n+](C)cc4)c4ccc([nH]4)c(-c4cc[n+](C)cc4)c4nc(c(-c5cc[n+](C)cc5)c5ccc2[nH]5)C=C4)C=C3)cc1", "EC50": "1 µM"}
{"molecule": "Oc1ccc(Cc2nc3c(Cc4ccccc4)nc(-c4ccc(O)cc4)cn3c2O)cc1", "EC50": "1 to 10 µM"}
{"molecule": "O=C(O)CCC(=O)Nc1ccc(S(=O)(=O)Nc2nccs2)cc1", "EC50": "> 40 µM"}
{"molecule": "COc1cccc2c1C(=O)c1c(O)c3c(c(O)c1C2=O)C[C@@](O)(C(C)=O)C[C@@H]3O[C@H]1C[C@H](N)[C@H](O)[C@H](C)O1", "EC50": "< 1 µM"}

Then there is this compound:
Sample O=C(O)c1cc(/N=N/c2ccc(S(=O)(=O)Nc3ccccn3)cc2)ccc1O ; EC50 observed: > 40 µM

====

System: chloroquine-sensitive strain 3D7 of P. falciparum
protocolDetails: P. falciparum growth inhibition in culture, strain 3D7
Format: cell-based, Plasmodium falciparum
conditionDetails: Table 5; read-out: ED50 (μM) in 3D7
The compounds listed here are annotated with their EC50.

{"compound": "O=C1Nc2ccc3ncsc3c2/C1=C/Nc1ccc(S(=O)(=O)Nc2ccccn2)cc1", "EC50": "1 to 10 µM"}
{"compound": "Cc1c(C(=O)c2cccc3ccccc23)c2cccc3c2n1[C@H](CN1CCOCC1)CO3 [R-(+)-WIN55212-2]", "EC50": "10 to 40 µM"}
{"compound": "O=C1c2ccc3c4ccc5c6c(ccc(c7ccc(c2c37)C(=O)N1CCN1CCCCC1)c64)C(=O)N(CCN1CCCCC1)C5=O", "EC50": "10 to 40 µM"}
{"compound": "CN([C@@H](Cc1ccc(OS(=O)(=O)c2cccc3cnccc23)cc1)C(=O)N1CCN(c2ccccc2)CC1)S(=O)(=O)c1cccc2cnccc12", "EC50": "0.69 µM"}
{"compound": "CN(C)S(=O)(=O)c1ccc2c(c1)/C(=C/c1cc3c([nH]1)CCCC3)C(=O)N2", "EC50": "10 µM"}

Log: chloroquine-sensitive strain 3D7 of P. falciparum, compound Cl.Cn1cc(C2=C(c3c4n(c5ccccc35)CCC(CN)C4)C(=O)NC2=O)c2ccccc21 (centres unmarked) [Bisindolylmaleimide X] , EC50 = 1 to 10 µM

Lab entry: chloroquine-sensitive strain 3D7 of P. falciparum assay, compound C[C@]12C=CC(=O)C=C1CC[C@@H]1C2=CC[C@]2(C)[C@@H](C(=O)CN3CCN(c4cc(N5CCCC5)nc(N5CCCC5)n4)CC3)CC[C@@H]12.O=C(O)/C=C\C(=O)O [U-74389G] , EC50 = 0.825 µM

chloroquine-sensitive strain 3D7 of P. falciparum EC50 of CN1CCCC1CCn1cc(C2=C(c3c[nH]c4ccccc34)C(=O)NC2=O)c2ccccc21 (centres unmarked) [Bisindolylmaleimide II] is 1 to 10 µM
